- ASSAYED_SYSTEM: T1, Human β-cardiac myosin S2 peptide, wild-type (MYH7, 19 residues) (human, also: in FRET: FITC on N-terminus of one monomer, terbium-DTPA-cytosine chelate on C-terminal Lys of the other)
- T1 construct: Chemically synthesized; forms a coiled-coil dimer; also called human cardiac myosin S2 peptide; cardiac muscle myosin S2^pep
- T1 peptide: EMNERLEDEEEMNAELTAK
- EXPERIMENT_NOTES: FRET donor lifetime of labelled S2 peptide dimer titrated with stabilizer
- Procedure: Donor probe was conjugated to C-terminus of a myosin S2 peptide monomer and acceptor probe was conjugated to N-terminus of another myosin S2 peptide. In FRET as lanthanide of the donor probe decays, energy goes to fluorescein and it emits out energy in form of light. […] Lifetime of donor probe was measured in milliseconds. […]
Where no end group is shown, it is not given here.
ASSAY_METRIC: Kd (nM)

INSERT INTO assay_data (binder, unit_abbreviation, test_result) VALUES
  ('KKKKKKKKFKAKKKKKK (also called stabilizing peptide; unlabeled stabilizer) [Stabilizer peptide]', 'nM', 21.2);
